Cited source for all entries: ChEMBL document CHEMBL4507273

Biological target: 5-hydroxytryptamine receptor 2C (Homo sapiens, UniProt P28335)
Sequence (P28335 whole entry): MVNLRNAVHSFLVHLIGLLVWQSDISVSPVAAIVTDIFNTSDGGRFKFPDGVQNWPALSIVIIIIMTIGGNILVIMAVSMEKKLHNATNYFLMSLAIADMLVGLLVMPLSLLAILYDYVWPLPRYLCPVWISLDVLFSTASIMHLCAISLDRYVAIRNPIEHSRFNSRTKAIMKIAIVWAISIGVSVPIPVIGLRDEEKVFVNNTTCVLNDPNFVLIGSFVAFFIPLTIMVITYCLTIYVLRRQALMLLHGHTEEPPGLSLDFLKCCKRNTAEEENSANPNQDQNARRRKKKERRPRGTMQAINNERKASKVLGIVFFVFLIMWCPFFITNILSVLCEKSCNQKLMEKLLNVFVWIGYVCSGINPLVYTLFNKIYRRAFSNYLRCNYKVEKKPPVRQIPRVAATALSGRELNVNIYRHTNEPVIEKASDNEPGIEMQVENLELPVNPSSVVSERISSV
Assay: GPCRScan assay: inhibition of 5-HT2C
Parameters: radioligand conc. used [nm] 1.0 – 2.5, parental cells HEK T
Conditions: read-out: Ki
Here the recorded pKi is given for each entry.
pKi here: minus log base 10 of the concentration, concentration in moles per litre.

[
  {
    "Smiles": "CNCc1ccccc1-c1csc([C@H](C)Nc2nc(C)nc3cc(OC)c(OC)cc23)c1",
    "System Under Test": "5-hydroxytryptamine receptor 2C (Homo sapiens, UniProt P28335)",
    "pKi": 6.15
  }
]

Let us move to another entry and its pKi.
Which measured pKi value corresponds to CNCc1ccccc1-c1csc([C@@H](C)Nc2nc(C)nc3cc(OC)c(OC)cc23)c1 ?
5.47

====

Target: 5-hydroxytryptamine receptor 2A (Homo sapiens)
Sequence (P28223 whole entry): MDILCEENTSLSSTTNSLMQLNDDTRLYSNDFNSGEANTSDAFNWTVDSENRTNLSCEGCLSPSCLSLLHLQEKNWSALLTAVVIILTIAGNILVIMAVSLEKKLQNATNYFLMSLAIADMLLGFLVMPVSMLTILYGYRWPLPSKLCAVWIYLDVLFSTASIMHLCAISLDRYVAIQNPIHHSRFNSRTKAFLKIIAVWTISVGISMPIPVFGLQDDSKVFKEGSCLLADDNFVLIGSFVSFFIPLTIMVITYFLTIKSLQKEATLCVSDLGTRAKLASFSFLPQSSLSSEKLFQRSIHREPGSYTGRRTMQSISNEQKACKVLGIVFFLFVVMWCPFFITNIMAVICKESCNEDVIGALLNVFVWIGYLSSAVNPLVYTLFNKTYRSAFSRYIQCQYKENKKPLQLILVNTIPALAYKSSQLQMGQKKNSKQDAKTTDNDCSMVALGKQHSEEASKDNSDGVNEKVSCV
Assay: GPCRScan assay: inhibition of 5-HT2A
Design: radioligand conc. used [nm] 1.2 – 2.4, parental cells HEKT
Conditions: read-out: Ki
Measurement Label: pKi
pKi here: minus log base 10 of the concentration, concentration in moles per litre.

[
  {
    "Molecule": "CNCc1ccccc1-c1csc([C@H](C)Nc2nc(C)nc3cc(OC)c(OC)cc23)c1 [BAY-294]",
    "Reported Result": 7.16
  }
]

Write down the reported pKi of CNCc1ccccc1-c1csc([C@@H](C)Nc2nc(C)nc3cc(OC)c(OC)cc23)c1 [BAY-293] , test system: 5-hydroxytryptamine receptor 2A (Homo sapiens).
6.87

====

Target: Muscarinic acetylcholine receptor M4 (Homo sapiens, UniProt P08173)
Sequence (P08173 whole entry): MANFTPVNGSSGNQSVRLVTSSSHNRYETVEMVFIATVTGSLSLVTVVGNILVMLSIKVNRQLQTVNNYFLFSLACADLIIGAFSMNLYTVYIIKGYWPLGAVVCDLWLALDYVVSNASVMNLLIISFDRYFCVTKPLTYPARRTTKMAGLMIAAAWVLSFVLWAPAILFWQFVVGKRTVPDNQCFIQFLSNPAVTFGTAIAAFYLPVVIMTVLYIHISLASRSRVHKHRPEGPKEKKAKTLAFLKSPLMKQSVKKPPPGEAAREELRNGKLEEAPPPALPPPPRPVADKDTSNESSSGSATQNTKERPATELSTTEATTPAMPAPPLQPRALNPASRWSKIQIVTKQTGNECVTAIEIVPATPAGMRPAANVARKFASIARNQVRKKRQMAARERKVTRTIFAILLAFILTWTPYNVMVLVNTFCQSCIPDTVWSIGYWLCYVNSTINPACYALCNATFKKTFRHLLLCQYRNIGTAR
Experiment: GPCRScan assay: inhibition of M4
Set-up: radioligand conc. used [nm] 0.3 – 1.0, parental cells stable CHO
Conditions: read-out: Ki
Measurement Label: pKi
pKi here: minus log base 10 of the concentration, concentration in moles per litre.

Which measured pKi value corresponds to CNCc1ccccc1-c1csc([C@H](C)Nc2nc(C)nc3cc(OC)c(OC)cc23)c1 ?
6.52

====

Here the recorded pKi is given for each entry.
Target: D(1A) dopamine receptor (Homo sapiens, UniProt P21728)
Sequence (P21728 whole entry): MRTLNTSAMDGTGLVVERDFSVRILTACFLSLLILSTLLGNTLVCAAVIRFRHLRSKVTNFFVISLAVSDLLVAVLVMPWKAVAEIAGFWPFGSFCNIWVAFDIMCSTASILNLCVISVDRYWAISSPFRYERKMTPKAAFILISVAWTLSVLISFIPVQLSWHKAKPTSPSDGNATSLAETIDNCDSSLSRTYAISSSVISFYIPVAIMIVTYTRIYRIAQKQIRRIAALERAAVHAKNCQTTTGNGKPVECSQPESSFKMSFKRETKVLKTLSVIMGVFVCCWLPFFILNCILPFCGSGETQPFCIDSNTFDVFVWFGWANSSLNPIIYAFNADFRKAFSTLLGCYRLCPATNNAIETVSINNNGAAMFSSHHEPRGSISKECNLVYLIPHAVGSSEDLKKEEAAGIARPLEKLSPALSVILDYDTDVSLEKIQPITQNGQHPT
Assay: GPCRScan assay: inhibition of D1
Set-up: radioligand conc. used [nm] 0.6 – 1.3, parental cells HEKT
Conditions: read-out: Ki
pKi here: minus log base 10 of the concentration, concentration in moles per litre.

[
  {
    "Compound": "CNCc1ccccc1-c1csc([C@H](C)Nc2nc(C)nc3cc(OC)c(OC)cc23)c1 [BAY-294]",
    "pKi": 6.14
  }
]

Let us move to another entry and its pKi.
Which measured pKi value corresponds to CNCc1ccccc1-c1csc([C@@H](C)Nc2nc(C)nc3cc(OC)c(OC)cc23)c1 [BAY-293] ?
5.90

====

Target: 5-hydroxytryptamine receptor 7 (Homo sapiens)
Sequence (P34969 whole entry): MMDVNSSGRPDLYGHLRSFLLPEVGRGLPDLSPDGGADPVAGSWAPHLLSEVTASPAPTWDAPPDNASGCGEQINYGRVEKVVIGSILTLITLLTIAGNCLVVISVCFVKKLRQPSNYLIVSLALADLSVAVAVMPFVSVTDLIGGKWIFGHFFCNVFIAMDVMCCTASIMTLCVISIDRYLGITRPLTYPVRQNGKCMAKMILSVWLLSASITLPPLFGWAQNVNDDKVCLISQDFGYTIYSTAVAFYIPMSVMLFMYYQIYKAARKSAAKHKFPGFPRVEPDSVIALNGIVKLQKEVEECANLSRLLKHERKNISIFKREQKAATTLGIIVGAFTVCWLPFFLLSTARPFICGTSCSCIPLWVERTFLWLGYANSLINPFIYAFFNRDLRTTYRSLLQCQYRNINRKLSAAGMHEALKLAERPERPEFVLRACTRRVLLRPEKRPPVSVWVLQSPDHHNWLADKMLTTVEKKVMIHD
Assay: GPCRScan assay: inhibition of 5-HT7A
Set-up: radioligand conc. used [nm] 5.0 – 6.0, parental cells Stable HEK
Settings: read-out: Ki
Measurement Label: Ki (nM)
Kindly answer with a numeric value in nM, unit omitted.

[
  {
    "Smiles": "CNCc1ccccc1-c1csc([C@@H](C)Nc2nc(C)nc3cc(OC)c(OC)cc23)c1",
    "Measurement Label": "Ki",
    "Unit": "nM",
    "Reported Result": 1730
  }
]

Let us move to another entry and its Ki.
Which measured Ki value corresponds to CNCc1ccccc1-c1csc([C@H](C)Nc2nc(C)nc3cc(OC)c(OC)cc23)c1 ?
700
